These data points were gathered from patent US6268366A.

- Target under test: glycine (GLY) site of the NMDA receptor (Rattus norvegicus, UniProt P35439)
- Construct: measured as described in Jones S. M., et al., Pharmacol. Methods, 1989;21:161
- Measurement notes: glycine (GLY) site of the NMDA receptor binding affinity (Jones et al.)
Metric name: pIC50
Remember, pIC50 is on a log scale: it is -log10 of the molar concentration.

Please give the measured pIC50 for this compound: Cc1c([N+](=O)[O-])cc2[nH]c(=O)c(=O)[nH]c2c1CN(C)C(=O)c1cc2ccccc2s1
7.40

Please give the measured pIC50 for this compound: Cc1c([N+](=O)[O-])cc2[nH]c(=O)c(=O)[nH]c2c1CN(C)C(=O)c1ccco1
8.22

Please give the measured pIC50 for this compound: Cc1c([N+](=O)[O-])cc2[nH]c(=O)c(=O)[nH]c2c1CN(C)C(=O)c1ccccc1
7.52
